- experimental_system: Sigma non-opioid intracellular receptor 1 (Cavia porcellus)
- method_notes: Inhibitory concentration against opioid receptor sigma 1 of guinea pig cerebral cortex using [3H](+)-pentazocine upon incubation for 150 minutes at 22 degree C
pIC50: −log10 of the molar value.
measured_parameter: pIC50

• O=C1N(CCN2CCCCC2)C[C@@H]2Cc3ccccc3CN12 = 7.27
• Oc1c2n(c(=S)n1CCN1CCCCC1)Cc1ccccc1C2 = 9.05
• c1ccc2c(c1)C[C@H]1CN(CCN3CCCCC3)CN1C2 = 7.11
• O=c1n(CCN2CCCCC2)c(O)c2n1Cc1ccccc1C2 = 8.18
